Hello, the source for this data is patent US20230183233A1, in case you need it.

- subject_of_test: human plasma kallikrein (Homo sapiens, UniProt P03952)
- Sequence (P03952 391-638 limits assumed): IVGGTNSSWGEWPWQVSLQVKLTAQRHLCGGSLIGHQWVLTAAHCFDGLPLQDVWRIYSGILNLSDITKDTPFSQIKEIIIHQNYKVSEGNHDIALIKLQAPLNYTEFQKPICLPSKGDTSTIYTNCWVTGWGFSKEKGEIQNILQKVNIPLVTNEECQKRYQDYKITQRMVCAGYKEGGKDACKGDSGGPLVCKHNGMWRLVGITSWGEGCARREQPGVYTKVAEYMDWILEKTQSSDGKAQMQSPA
- Sequence (P03952 20-390 partner limits assumed): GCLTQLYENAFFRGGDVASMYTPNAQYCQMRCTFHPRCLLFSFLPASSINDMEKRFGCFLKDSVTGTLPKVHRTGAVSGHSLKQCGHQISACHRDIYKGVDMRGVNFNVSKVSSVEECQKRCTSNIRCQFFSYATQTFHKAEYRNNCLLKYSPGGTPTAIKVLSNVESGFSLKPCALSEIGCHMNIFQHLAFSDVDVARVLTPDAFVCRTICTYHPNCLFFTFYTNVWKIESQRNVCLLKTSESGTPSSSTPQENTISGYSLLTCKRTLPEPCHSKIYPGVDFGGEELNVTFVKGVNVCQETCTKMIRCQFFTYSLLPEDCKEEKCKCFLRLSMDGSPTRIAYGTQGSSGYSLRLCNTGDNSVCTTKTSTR
- method_summary: Kallikrein inhibition assay utilizing a quenched AMC peptide substrate (FLINT, kinetic read)
- Type: biochemical
- measurement_context: values given with μM, read-out: Kallikrein KIN Inh IC50
recorded_metric: IC50 (µM)
Numeric only. Scale: µM

Record excerpt, results attached:
- CC1C[C@@H](c2ncc(-c3cnns3)[nH]2)n2c1nc(-c1c(-n3cnnn3)ccc(Cl)c1F)cc2=O (stereo in doubt): 2.3
- C[C@H]1C[C@@H](c2[nH]c(-c3ccc(N)nc3F)nc2F)n2c1cc(-c1c(-n3cnnn3)ccc(Cl)c1F)cc2=O (relative stereo): 9.8

Enquiry: Which IC50 reading was recorded for the molecule C[C@H]1C[C@H](c2ncc(-c3ccc(N)nc3Cl)[nH]2)n2c1cc(-c1c(-n3cnnn3)ccc(Cl)c1F)cc2=O (relative stereo) ?
Return: 7.8

----------
- subject_of_test: Factor XIa (Homo sapiens, UniProt P03951)
- Sequence (P03951 388-625 limits assumed): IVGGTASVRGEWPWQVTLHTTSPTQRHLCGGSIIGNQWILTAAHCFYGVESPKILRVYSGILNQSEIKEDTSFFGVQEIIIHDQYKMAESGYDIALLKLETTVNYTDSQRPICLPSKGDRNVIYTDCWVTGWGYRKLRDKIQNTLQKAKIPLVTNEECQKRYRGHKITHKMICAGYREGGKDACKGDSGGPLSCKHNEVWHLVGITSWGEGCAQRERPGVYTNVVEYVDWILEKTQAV
- Sequence (P03951 19-387 partner limits assumed): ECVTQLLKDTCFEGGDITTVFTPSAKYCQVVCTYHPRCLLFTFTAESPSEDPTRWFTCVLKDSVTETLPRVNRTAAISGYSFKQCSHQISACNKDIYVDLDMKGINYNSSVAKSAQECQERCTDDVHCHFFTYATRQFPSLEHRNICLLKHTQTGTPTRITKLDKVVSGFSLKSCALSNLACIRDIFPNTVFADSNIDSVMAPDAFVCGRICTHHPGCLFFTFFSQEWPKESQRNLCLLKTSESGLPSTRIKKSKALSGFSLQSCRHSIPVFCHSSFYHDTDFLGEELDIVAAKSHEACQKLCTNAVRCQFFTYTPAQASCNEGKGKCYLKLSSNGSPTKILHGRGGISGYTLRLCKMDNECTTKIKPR
- method_summary: Factor XIa inhibition assay utilizing a fluorophore-quencher pair peptide substrate (FLINT, kinetic read)
- Type: biochemical
- measurement_context: values in nM, read-out: FXIa KIN Inh IC50
Hi! Just check whether IC50 is below 9 nM. Below gives Criterion met, equal or above gives Criterion not met.

* CC1C[C@@H](c2ncc(-c3cnns3)[nH]2)n2c1nc(-c1c(-n3cnnn3)ccc(Cl)c1F)cc2=O (stereo in doubt) | Criterion not met

Enquiry: Is IC50 strictly under 9 nM for the entry C[C@H]1C[C@@H](c2ncc(-c3ccc(N)nc3F)[nH]2)n2c1nc(-c1c(-n3cnnn3)ccc(Cl)c1F)cc2=O (relative stereo) ?
Return: Criterion met

Enquiry: Now give it for C[C@H]1C[C@H](c2ncc(-c3ccc(N)nc3Cl)[nH]2)n2c1cc(-c1c(-n3cnnn3)ccc(Cl)c1F)cc2=O (relative stereo) too.
Return: Criterion not met

Enquiry: Nc1ccc(-c2cnc([C@H]3CC4(CC4)c4cc(-c5cc(Cl)ccc5-n5cnnn5)cc(=O)n43)[nH]2)c(F)n1 (single isomer, unassigned) ?
Return: Criterion met

----------
- subject_of_test: human plasma kallikrein (Homo sapiens)
- method_summary: Kallikrein inhibition assay utilizing a quenched AMC peptide substrate (FLINT, kinetic read)
- Type: biochemical
- measurement_context: values in nM, read-out: Kallikrein KIN Inh IC50
Quick reference for IC50 among some molecules
Reply with the number, then its unit.

Study these solved cases before continuing.
• C[C@H]1C[C@@H](c2ncc(-c3ccc(N)nc3F)[nH]2)n2c1nc(-c1c(-n3cnnn3)ccc(Cl)c1F)cc2=O (relative stereo) = 23.5 nM
• Nc1ccc(-c2cnc([C@H]3CC4(CC4)c4cc(-c5cc(Cl)ccc5-n5cnnn5)cc(=O)n43)[nH]2)c(F)n1 (single isomer, unassigned) = 39.2 nM

Lab note: next molecule to report on.
Enquiry: Provide value of IC50 for this record tested with human plasma kallikrein (Homo sapiens): C[C@H]1C[C@@H](c2ncc(-c3ccnn3C)[nH]2)n2c1nc(-c1c(-n3cnnn3)ccc(Cl)c1F)cc2=O (relative stereo)
Return: 296 nM
